Assay details: microPET imaging and biodistribution of 18F labeled NTS peptide agent in PC3 tumor-bearing nude mice
Type: in vivo
Run conditions: male, athymic nude, mouse; PC3 tumor model
Where a SMILES comes first, the peptide text is derived from it. [ ]: non-standard residue; d: D form. The star is where a group is joined. Gly(1-amidinopiperidin-4-yl) = N=C(N)N1CCC([C@H](N)C(=O)O)CC1; Gly(piperidin-4-yl) = N[C@H](C(=O)O)C1CCNCC1; Tle = CC(C)(C)[C@H](N)C(=O)O; X1 = O=S(=O)(CCOCCOCCF)CC*
Reported metric: tissue uptake (%ID/g)
Give the quantity in %ID/g, number only.

Identify measured tissue uptake corresponding to CC(C)C[C@H](NC(=O)[C@@H](NC(=O)[C@H](Cc1ccc(O)cc1)NC(=O)[C@@H]1CCCN1C(=O)[C@H](CCCNC(=N)N)NC(=O)[C@@H](NC(=O)[C@@H]1CCCN1C(=O)[C@@H](NC(=O)[C@@H](N)CSCCS(=O)(=O)CCOCCOCCF)C1CCNCC1)C1CCN(C(=N)N)CC1)C(C)(C)C)C(=O)O [^18F-VS-Cys-NTSmut] (H-C(X1)[Gly(piperidin-4-yl)]P[Gly(1-amidinopiperidin-4-yl)]RPY[Tle]L-OH; N-terminus assumed) 1.3
